target: Muscarinic acetylcholine receptor M5 (Homo sapiens); experiment: human M5 muscarinic receptor antagonists, primary screen, CHO cells, Fluo-8 calcium fluorescence (AID 624040); settings: CHO-hM5 cells, ACh EC80, at 3 µM
Among all 360,000 compounds or so, about 2,100 (0.58%) were called active.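 Rule for the calls: active = inhibition above a per-plate cutoff, the mean of that plate's test compounds plus 3 SD (cut at about 27% in these data); inactive = the rest.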 This is one part of a sample in which actives are shown more often than they occur.
Possible outcomes: active, inactive

1) C[C@H](NS(=O)(=O)c1ccc(Cl)cc1)C(=O)OCC(=O)N1CCOCC1 :: inactive
2) OC(C#CCN1CCOCC1)(c1ccccc1)C1CCCCC1 (stereo unspecified) :: inactive
3) COc1cc2c(cc1OC)C(C(=O)Nc1cc(C)c(OC)c(C)c1)CC(=O)N2 (stereo unspecified) :: inactive
4) Cc1ccc(C)n1-c1ccncc1 :: inactive
5) CCOC(=O)c1ccc(N/C(=N/S(=O)(=O)c2ccccc2)c2ccccc2)cc1 :: inactive
6) CC(=O)NC(CC(=O)Nc1nccs1)c1ccccc1 (stereo unspecified) :: inactive
7) COC(=O)c1ccc(NC(=O)c2ccccc2NS(=O)(=O)c2ccccc2)cc1 :: active
8) Nc1c(Cl)cc(-c2csc(N3CCCC3c3nc4cc(Cl)c(Cl)cc4n3CCOCCO)n2)cc1Cl (stereo unspecified) :: inactive
9) COc1cccc(OCC(=O)NCCS(=O)(=O)N2CCN(c3ccccc3)CC2)c1 :: inactive
10) C[C@H](NC(=O)c1[nH]cnc1C(=O)Nc1nccs1)c1ccccc1 :: inactive
11) O=C(c1ccccc1)C(O)(CN1CCCCC1)c1ccccc1 (stereo unspecified) :: inactive
